Each entry below carries its reported IC50.
system: M. tuberculosis H37Rv growth inhibition with meropenem; experiment: dose response, H37Rv, with and without meropenem (AID 434987);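 further: growth over 7 days at 37 °C before Alamar Blue read on day 9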; details: M. tuberculosis H37Rv growth inhibition; measured here: IC50 without meropenem

// known answers, use as guide
{"MOLECULE": "CCOC(=O)c1[nH]c2ccccc2c1NC(=O)Nc1ccc(OC)cc1", "IC50": "> 100 µM"}
{"MOLECULE": "CN(c1ccc(OCC(=O)OCC(=O)c2c(N)n(C)c(=O)n(C)c2=O)cc1)S(=O)(=O)c1ccc2ccccc2c1", "IC50": "> 100 µM"}
{"MOLECULE": "Cc1cc(C(=O)CN2C(=O)NC(C)(CC(C)C)C2=O)c(C)n1-c1ccc2c(c1)OCO2 (stereo unspecified)", "IC50": "74.7 µM"}

## Input Using known records, supply IC50 for OCCCn1c(C2CCCN2c2nc(-c3ccc(Cl)cc3)cs2)nc2cc(Cl)c(Cl)cc21 (stereo unspecified)
## Output > 100 µM

## Input Fill in IC50 for record CC(=O)Nc1ccc(SCC(=O)c2cc(C)n(CC(F)(F)F)c2C)cc1
## Output 53.5 µM

## Input State, in one line, measured IC50 of Cc1ccc(C(=O)Nc2c(C)cc(C)c3cccnc23)cc1
## Output 10.3 µM

## Input Assign IC50 to the following record: CNC(=S)N/N=C(\C)c1ccc(Cl)c(Cl)c1
## Output > 100 µM

## Input Give IC50 for the following molecule: O=C(NCc1ccc2c(c1)OCO2)C(=O)NC1CCCCC1
## Output > 100 µM

## Input Give recorded IC50. Cc1ccc(NC(=O)CCS(=O)(=O)c2cccc3nonc23)cc1
## Output 31.1 µM

## Input Quickly give me recorded IC50 for NNC(=O)c1cccc(O)c1
## Output 79.5 µM

## Input Please list IC50 recorded for the molecule COc1cccc(/C=N/NC(=O)c2cnccn2)c1O
## Output 44.8 µM

Origin of values: PubChem BioAssay AID434987
